Where do the numbers come from? From patent US20070196376A1.

TARGET OR SYSTEM: human insulin-like growth factor-I (IGF-I) (human, UniProt P05019 49-118)
ASSAY PROTOCOL: cell-based or functional assay
REPORTED PROPERTY: % MAX Activation, mean (n = 2), IGF-I pTYR of hIGF-IR in NIH3T3 cells (%)
One number for each entry, in %.

Provide % MAX Activation, mean (n = 2), IGF-I pTYR of hIGF-IR in NIH3T3 cells for all items below, preserving their order.
1. mAb 7.158.2 (antibody, V domains shown, Kappa light chain (L5/JK3); also called 7.158.1; 7_158_1) VH: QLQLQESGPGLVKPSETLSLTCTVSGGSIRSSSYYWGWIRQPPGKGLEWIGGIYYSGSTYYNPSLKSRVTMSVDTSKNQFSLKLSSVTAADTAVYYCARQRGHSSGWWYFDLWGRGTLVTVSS VL: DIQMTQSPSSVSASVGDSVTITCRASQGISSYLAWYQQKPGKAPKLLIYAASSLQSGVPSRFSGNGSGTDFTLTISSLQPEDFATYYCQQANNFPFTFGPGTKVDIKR
2. mAb 7.34.1 (antibody, V domains shown, Fully human XenoMouse hybridoma mAb, lambda light chain (V1-13/JL2); also called ATCC PTA-7423) VH: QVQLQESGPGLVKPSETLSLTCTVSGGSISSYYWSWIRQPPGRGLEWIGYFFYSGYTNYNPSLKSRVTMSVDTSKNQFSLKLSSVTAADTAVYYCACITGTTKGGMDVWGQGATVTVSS VL: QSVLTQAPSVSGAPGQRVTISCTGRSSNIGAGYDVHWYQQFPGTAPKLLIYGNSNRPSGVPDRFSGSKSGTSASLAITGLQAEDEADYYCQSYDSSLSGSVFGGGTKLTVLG
3. mAb 7.234.2 (antibody, V domains shown, Kappa light chain (L5/JK3); also called 7.234.1; 7_234_1) VH: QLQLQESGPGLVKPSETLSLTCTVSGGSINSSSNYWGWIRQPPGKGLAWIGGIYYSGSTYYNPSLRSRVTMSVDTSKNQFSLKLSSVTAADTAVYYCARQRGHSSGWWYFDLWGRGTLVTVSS VL: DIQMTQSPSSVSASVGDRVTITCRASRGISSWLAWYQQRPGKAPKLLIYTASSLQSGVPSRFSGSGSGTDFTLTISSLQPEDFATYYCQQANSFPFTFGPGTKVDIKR
4. mAb 7.159.2 (antibody, V domains shown, Fully human XenoMouse hybridoma mAb, lambda light chain (V1-19/JL2); Sister clones 7.159.1 and 7.159.2 are said to be identical; also called 7.159.1; 7_159_1) VH: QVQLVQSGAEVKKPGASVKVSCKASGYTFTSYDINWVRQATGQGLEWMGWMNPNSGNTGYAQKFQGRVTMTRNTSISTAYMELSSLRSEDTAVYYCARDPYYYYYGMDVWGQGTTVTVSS VL: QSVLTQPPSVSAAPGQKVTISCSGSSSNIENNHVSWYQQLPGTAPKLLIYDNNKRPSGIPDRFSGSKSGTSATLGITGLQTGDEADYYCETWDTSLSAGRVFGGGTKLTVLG

-- reply
1: 22.7; 2: 14.2; 3: 21.1; 4: 16.5
